All figures here come from BigSolDB 2.1.

Settings: in 1,4-dioxane, 303.15 K
MEASUREMENT_KIND: solubility (mole fraction)

Q: Consider the compound N[C@H](Cc1c[nH]cn1)C(=O)O and give its measured solubility (mole fraction).
Result: 0.0102

###

Conditions: in isobutanol, 328.15 K
MEASUREMENT_KIND: solubility (mole fraction)
# respond with the number and nothing more

Q: Which solubility (mole fraction) is reported for this molecule? N[C@H](Cc1c[nH]cn1)C(=O)O
Result: 0.0024

###

Settings: in 1,4-dioxane, 328.15 K
MEASUREMENT_KIND: solubility (mole fraction)
Provide a numeric answer; units are not to be included.

Q: Which value of solubility (mole fraction) has been reported for N[C@H](Cc1c[nH]cn1)C(=O)O in the records?
Result: 0.0206

###

Conditions: in ethanol, 293.15 K
MEASUREMENT_KIND: solubility (mole fraction)
Write no unit; give the number alone.

Q: State the recorded solubility (mole fraction) for this entry: N[C@H](Cc1c[nH]cn1)C(=O)O
Result: 0.000253

###

Settings: in 1,4-dioxane, 323.15 K
MEASUREMENT_KIND: solubility (mole fraction)
Reply with just the number.

Q: # get_value(readout='solubility (mole fraction)', item= N[C@H](Cc1c[nH]cn1)C(=O)O )
Result: 0.0179

###

Settings: in isopropanol, 328.15 K
MEASUREMENT_KIND: solubility (mole fraction)
Would you mind answering with just the numeric figure?

Q: Fill in: solubility (mole fraction) of N[C@H](Cc1c[nH]cn1)C(=O)O is ___
Result: 0.00177

###

Conditions: in DMF, 328.15 K
MEASUREMENT_KIND: solubility (mole fraction)
API doc: respond with a numeric literal and nothing else, no unit.

Q: Please report the recorded solubility (mole fraction) for N[C@H](Cc1c[nH]cn1)C(=O)O .
Result: 0.365

###

Details: in ethanol, 313.15 K
MEASUREMENT_KIND: solubility (mole fraction)
Form field (numeric): enter value without unit.

Q: Which value of solubility (mole fraction) has been reported for N[C@H](Cc1c[nH]cn1)C(=O)O in the records?
Result: 0.000724

###

Conditions: in DMSO, 328.15 K
MEASUREMENT_KIND: solubility (mole fraction)
Please give only the number in your answer, with no unit.

Q: What does the record list as solubility (mole fraction) for N[C@H](Cc1c[nH]cn1)C(=O)O ?
Result: 0.0459

###

Details: in DMF, 313.15 K
MEASUREMENT_KIND: solubility (mole fraction)

Q: # solubility (mole fraction) lookup, item N[C@H](Cc1c[nH]cn1)C(=O)O
Result: 0.258

###

Details: in isopropanol, 318.15 K
MEASUREMENT_KIND: solubility (mole fraction)

Q: Could you share which solubility (mole fraction) value was measured for N[C@H](Cc1c[nH]cn1)C(=O)O ?
Result: 0.00117

###

Details: in isobutanol, 333.15 K
MEASUREMENT_KIND: solubility (mole fraction)
Number only, please.

Q: Entry under review: N[C@H](Cc1c[nH]cn1)C(=O)O . Reported solubility (mole fraction)?
Result: 0.00286

###

Details: in ethylene glycol, 313.15 K
MEASUREMENT_KIND: solubility (mole fraction)
Lab note: record the figure alone, no unit after it.

Q: Can you share its solubility (mole fraction)? I mean this compound: N[C@H](Cc1c[nH]cn1)C(=O)O
Result: 0.00459

###

Conditions: in ethylene glycol, 318.15 K
MEASUREMENT_KIND: solubility (mole fraction)

Q: Given the compound N[C@H](Cc1c[nH]cn1)C(=O)O , what is its reported solubility (mole fraction)?
Result: 0.00559

###

Conditions: in ethanol, 323.15 K
MEASUREMENT_KIND: solubility (mole fraction)
# print the numeric value only

Q: Please report the recorded solubility (mole fraction) for N[C@H](Cc1c[nH]cn1)C(=O)O .
Result: 0.0012

###

Settings: in DMSO, 293.15 K
MEASUREMENT_KIND: solubility (mole fraction)
Give only the figure.

Q: If you can, please state the reported solubility (mole fraction) value of N[C@H](Cc1c[nH]cn1)C(=O)O .
Result: 0.0171

###

Settings: in ethylene glycol, 298.15 K
MEASUREMENT_KIND: solubility (mole fraction)

Q: Recorded solubility (mole fraction) of N[C@H](Cc1c[nH]cn1)C(=O)O , please.
Result: 0.00263

###

Conditions: in NMP, 323.15 K
MEASUREMENT_KIND: solubility (mole fraction)
Give the value as a plain number.

Q: Endpoint output: solubility (mole fraction) of N[C@H](Cc1c[nH]cn1)C(=O)O . Value?
Result: 0.14

###

Conditions: in water, 308.15 K
MEASUREMENT_KIND: solubility (mole fraction)
// no unit string in output, number only

Q: Sample N[C@H](Cc1c[nH]cn1)C(=O)O — what was its solubility (mole fraction)?
Result: 0.00619

###

Conditions: in 1,4-dioxane, 293.15 K
MEASUREMENT_KIND: solubility (mole fraction)
API doc: respond with a numeric literal and nothing else, no unit.

Q: Can you look up the measured solubility (mole fraction) of N[C@H](Cc1c[nH]cn1)C(=O)O for me?
Result: 0.0072

###

Conditions: in DMF, 308.15 K
MEASUREMENT_KIND: solubility (mole fraction)
Reply: number alone, nothing else.

Q: Returns the measured solubility (mole fraction) for the input compound. Input: N[C@H](Cc1c[nH]cn1)C(=O)O
Result: 0.228

###

Conditions: in NMP, 328.15 K
MEASUREMENT_KIND: solubility (mole fraction)
Answer with a number only.

Q: Would you mind telling me what solubility (mole fraction) value was observed for N[C@H](Cc1c[nH]cn1)C(=O)O ?
Result: 0.157

###

Conditions: in cyclohexane, 303.15 K
MEASUREMENT_KIND: solubility (mole fraction)
Could you keep your reply to the number by itself?

Q: Entry under review: N[C@H](Cc1c[nH]cn1)C(=O)O . Reported solubility (mole fraction)?
Result: 0.000714

###

Conditions: in n-butanol, 298.15 K
MEASUREMENT_KIND: solubility (mole fraction)
Format: numeric value only, no unit, no commentary.

Q: Can you look up the measured solubility (mole fraction) of N[C@H](Cc1c[nH]cn1)C(=O)O for me?
Result: 0.000865

###

Conditions: in NMP, 333.15 K
MEASUREMENT_KIND: solubility (mole fraction)

Q: # input compound: N[C@H](Cc1c[nH]cn1)C(=O)O ; wanted: its solubility (mole fraction)
Result: 0.178

###

Settings: in cyclohexane, 298.15 K
MEASUREMENT_KIND: solubility (mole fraction)

Q: Reported solubility (mole fraction), molecule N[C@H](Cc1c[nH]cn1)C(=O)O : ____
Result: 0.000565

###

Details: in water, 298.15 K
MEASUREMENT_KIND: solubility (mole fraction)
Lab note: write the figure by itself, no unit.

Q: What value of solubility (mole fraction) has been recorded for this entry: N[C@H](Cc1c[nH]cn1)C(=O)O
Result: 0.00506

###

Conditions: in n-propanol, 303.15 K
MEASUREMENT_KIND: solubility (mole fraction)
Write the number on its own, no unit after it.

Q: May I ask what solubility (mole fraction) has been recorded for N[C@H](Cc1c[nH]cn1)C(=O)O ?
Result: 0.00076

###

Settings: in water, 318.15 K
MEASUREMENT_KIND: solubility (mole fraction)
Kindly provide the number alone.

Q: I am curious: what solubility (mole fraction) value has been reported for N[C@H](Cc1c[nH]cn1)C(=O)O ?
Result: 0.00765

###

Conditions: in methanol, 308.15 K
MEASUREMENT_KIND: solubility (mole fraction)
Give a plain numeric answer without units written out.

Q: Name the recorded solubility (mole fraction) for N[C@H](Cc1c[nH]cn1)C(=O)O .
Result: 0.000431

###

Details: in DMSO, 333.15 K
MEASUREMENT_KIND: solubility (mole fraction)
Please reply with the number alone, leaving off any unit.

Q: // returns reported solubility (mole fraction) for input N[C@H](Cc1c[nH]cn1)C(=O)O
Result: 0.0543

###

Conditions: in cyclohexane, 293.15 K
MEASUREMENT_KIND: solubility (mole fraction)
Reply with the value as a number alone.

Q: Given the entry N[C@H](Cc1c[nH]cn1)C(=O)O , report its measured solubility (mole fraction).
Result: 0.000445

###

Conditions: in DMF, 333.15 K
MEASUREMENT_KIND: solubility (mole fraction)
Form: value (number only, do not type unit).

Q: Please look up its solubility (mole fraction): N[C@H](Cc1c[nH]cn1)C(=O)O
Result: 0.417
